Reported apparent KD of K4 kissing-loop reporter values are given for each entry in this list.
Tested on: K4 kissing-loop RNA reporter
Method notes: apparent KD of K4 kissing-loop reporter; higher = weaker reporter binding
Assay conditions: Eterna round: R107; input ligand: tryptophan 2.4 mM
Don't forget the unit after the value.

# Sequence content, apparent KD of K4 kissing-loop reporter
data = [
    ("UAUACUAGACAAGAGAGAAUUCUCUCAAGAGAGGAUAUCCGAAUUCGGAGAAGGCUCUCUCAGUGAUGUUGGGUAUAGUCUAGAA [AK7 SS FMN A]", "299 nM"),
    ("UGAUACCAGACGGCCGCCACUCCCGUAAGUCAAAGACUUACGAAGAGAGUUUUCCAGUGAUGUUGGAGGACCGGGUCUGGUAUCU [FiskerMod 15 - Jieux - Exclusion - Tryptophan B]", "232 nM"),
    ("UUAGGAGUGGGAGGAUAUCCUGGUGUGGGUGAUGUUAGUGAUGUUGAAAGUGUAGUGAUGUUGUGCGGAGAAGGUCCAGUGUUGA [BDazzled - #10 - Exc. FMN B]", "292 nM"),
    ("UGUCAUUGGUCGGCCGCCACUUCGGUCAAAGACCAUAAAGAGUGAUGUUCUUAAGACGAAAGUCGAAGGACCGGGACCGAUGACU [TrypBS 11 #SwitchBubble #K4Middle]", "273 nM"),
]

# ---- query sequence ----
For AAACAUUGGUCUGAUACCAGUUAGACCGAUAAGGUCAAAACUGGAGUGAUGUUCCCAAAUAACCCUUGGCAGCAGACCGAUGAAA [MAT - Same State Theophlline B - Mod of Eli - D10] the sequence record lists apparent KD of K4 kissing-loop reporter as 231 nM

----------
Test system: K4 kissing-loop RNA reporter;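 further: bound reporter read as fluorescence of individual clusters on recovered sequencing chips by microscopy, with normalized cluster intensities fitted with a binding model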
Method notes: apparent KD of K4 kissing-loop reporter; higher = weaker reporter binding
Assay conditions: Eterna round: R107; input ligand: theophylline 20 uM
Property name: apparent KD of K4 kissing-loop reporter (nM)
The response must be a number in nM with no trailing unit.

As a guide, the following entries are already answered.
# Sequence content, Reading unit, apparent KD of K4 kissing-loop reporter
rows = [
    ("AUAUUAAGCGGAAGGAGCGGCUGAACCAGUGAUGUUGGUUAAUCCAAGUGAUGUUGGAAAAGCCAGGUAGGUCGCCGCUAUAUAU [Same State Arg B GF 1]", "nM", 569),
    ("AAGUCUCGUUAAUUCGUGGUUUCGAUCGAUACCAGUAGCGAGAGUUACCCUUGGCAGCGAAAUGAGUGAUGUUCAUGAAAGAAGA [KL-XTheoA10]", "nM", 107),
    ("CACUCGGUAUCAGAUACCAGACUAACGAUACCGAGUGUAUCGGGUAGUGAUGUUACCAUAGUCCCUUGGCAGCUGAUAUACCAUA [Theo B SS t9]", "nM", 269),
    ("GUGAAGGAGCAGCAGUGAUGUUGCUGAGACUAGGAUAUCAGGAAACUGAGAAGGAGUCAACUCCUUCACCUAGACUGCAACAUAA [KL-SSFMN-A13]", "nM", 249),
    ("ACGUAGUUCUAGGAUACCAGCCAAGGACGCCAGGACAAAAGUCCUGGCGCCAGUGAUGUUGGCCCUUGGCAGCCUAGAACUACGA [Omei KL Theo B Exc B v5]", "nM", 205),
]

For this sequence ( ACGGAGUGAUGUUCCGGCCUCCCAGCAGAUACCAGCAGUCGCGAUUGCCCUUGGCAGCUGUCCGCGGCAUCCACUUGUAGCGGUA [theeternabot_exclusion_KL_Theo_A_12] ), measured apparent KD of K4 kissing-loop reporter is 222
